test system: lambsquarters (Chenopodium album); experiment: Test B postemergence; format: in vivo; details: Rate 500 g/ha, scale 0 to 100, 0 is no effect, 100 is complete control, 13 to 15 days
property measured: Plant response rating, Lambsquarters

{"compound": "Cc1c(Cl)cc(N2CCC(n3ccc(C(C)(C)C)n3)C2=O)cc1Cl (stereo not shown) [Compound 74]", "property measured": "Plant response rating, Lambsquarters", "reading": 0}
{"compound": "CCC(CC)c1ccn(C2CCN(c3cccc(OC)c3)C2=O)n1 (stereo not shown) [Compound 96]", "property measured": "Plant response rating, Lambsquarters", "reading": 90}
{"compound": "Cc1ccc(N2CCC(n3ccc(C(C)(C)C)n3)C2=O)cc1OCCCl (stereo not shown) [Compound 109]", "property measured": "Plant response rating, Lambsquarters", "reading": 90}
{"compound": "CC(C)(C)c1ccn(C2CCN(c3cc(Cl)cc(Cl)c3)C2=O)n1 (stereo not shown) [Compound 55]", "property measured": "Plant response rating, Lambsquarters", "reading": 0}
{"compound": "O=C1C(n2ccc(C3CCCCC3)n2)SCN1c1cccc(C(F)(F)F)c1 (stereo not shown) [Compound 52]", "property measured": "Plant response rating, Lambsquarters", "reading": 0}
{"compound": "Cc1ccc(N2CCC(n3ccc(C(C)(C)C)n3)C2=O)cc1Br (stereo not shown) [Compound 35]", "property measured": "Plant response rating, Lambsquarters", "reading": 80}
{"compound": "CCCCC(CCCC)c1ccn(C2SCN(c3cccc(OC(F)(F)F)c3)C2=O)n1 (stereo not shown) [Compound 115]", "property measured": "Plant response rating, Lambsquarters", "reading": 0}
